# experimental.system: Thioredoxin reductase 1, cytoplasmic (Rattus norvegicus) (UniProt O89049)
# Sequence (O89049 whole entry, looked up): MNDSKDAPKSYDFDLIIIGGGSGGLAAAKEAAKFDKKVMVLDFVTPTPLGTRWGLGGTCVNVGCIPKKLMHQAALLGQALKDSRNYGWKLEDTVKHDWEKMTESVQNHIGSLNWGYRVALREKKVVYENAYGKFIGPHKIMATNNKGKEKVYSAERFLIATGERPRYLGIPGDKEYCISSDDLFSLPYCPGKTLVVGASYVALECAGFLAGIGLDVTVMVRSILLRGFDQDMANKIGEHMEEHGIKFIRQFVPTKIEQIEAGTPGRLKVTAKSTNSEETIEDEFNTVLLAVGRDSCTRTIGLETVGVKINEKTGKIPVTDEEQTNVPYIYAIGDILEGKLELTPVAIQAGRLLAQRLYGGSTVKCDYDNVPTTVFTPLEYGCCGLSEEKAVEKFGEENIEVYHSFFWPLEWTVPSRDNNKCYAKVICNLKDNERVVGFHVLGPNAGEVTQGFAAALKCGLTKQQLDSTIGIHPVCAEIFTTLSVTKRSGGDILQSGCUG
# protocol.details: qHTS Assay for Inhibitors of Mammalian Selenoprotein Thioredoxin Reductase 1 (TrxR1): qHTS; also: nearly all actives have a fitted effect of over 65% in size
# details: recombinant rTrxR1, NADPH fluorescence consumption, selenite substrate; series mostly up to 114 µM
Screen size: about 390,000 compounds; about 4,000 (1%) were called active. Another 4% or so got no clear call; they are omitted. Calls follow the shape of the dose curve; as a rule, active = well fitted inhibition curve with a large enough effect; inconclusive = small, poorly fitted or top-dose-only effect; inactive = no such curve, though single readings can be large or run the other way. This excerpt belongs to a sample that is enriched for actives.
Your response should consist of one outcome taken from yes (1) for active, no (0) for inactive

As a guide, the following entries are already answered.
Exam item: GET /call?item= COc1ccccc1-n1c(=S)[nH]c2c(sc(=S)n2-c2ccc(C)cc2C)c1=O returns the recorded outcome of this test.
Marked response: no (0)

Exam item: GET /call?item= COc1ccc(/C=C/c2ccnc3ccccc23)cc1OC returns the recorded outcome of this test.
Marked response: no (0)

Exam item: GET /call?item= O=C(NC(=S)Nc1ccc(Br)cc1F)C1CCCCC1 returns the recorded outcome of this test.
Marked response: no (0)

Continuing:
Exam item: GET /call?item= Fc1cc(Br)ccc1NC(=S)Nc1cccnc1 returns the recorded outcome of this test.
Marked response: yes (1)

Exam item: GET /call?item= O=S(=O)(c1cc(Cl)ccc1Cl)N1CCN(Cc2ccco2)CC1 returns the recorded outcome of this test.
Marked response: no (0)

Exam item: GET /call?item= ClC/C=C/C[n+]1ccccc1Cl returns the recorded outcome of this test.
Marked response: no (0)

Exam item: GET /call?item= O=C(CN1CCN(S(=O)(=O)c2cc(Cl)ccc2Cl)CC1)c1ccc(O)c(O)c1 returns the recorded outcome of this test.
Marked response: yes (1)

Exam item: GET /call?item= CN1C(=O)c2ccccc2Sc2ccc(NC(=O)Cc3ccc(Cl)cc3)cc21 returns the recorded outcome of this test.
Marked response: no (0)

Exam item: GET /call?item= CCN1CCN(C(=O)C2CCN(S(=O)(=O)c3cc(Cl)ccc3Cl)CC2)CC1 returns the recorded outcome of this test.
Marked response: no (0)

Exam item: GET /call?item= Cc1ccc(C2C(C#N)C(C#N)N3CCCN23)cc1 (stereo unspecified) returns the recorded outcome of this test.
Marked response: yes (1)

Exam item: GET /call?item= Cc1cc(-c2n[nH]c(=S)n2-c2ccc(C)c(C)c2)no1 returns the recorded outcome of this test.
Marked response: no (0)

====

# experimental.system: Thioredoxin reductase 1, cytoplasmic (Rattus norvegicus)
# protocol.details: qHTS Assay for Inhibitors of Mammalian Selenoprotein Thioredoxin Reductase 1 (TrxR1): qHTS; also: nearly all actives have a fitted effect of over 65% in size; also: potency is read from the fitted curve at half-maximal effect
# details: recombinant rTrxR1, NADPH fluorescence consumption, selenite substrate; series mostly up to 114 µM
In all, about 390,000 compounds went through this assay and about 4,000 (1%) were called active. Not shown: some 4% with an inconclusive outcome. The entries come from a sample that favours actives as a whole.
recorded.metric: Potency

Example compounds with recorded Potency:
Exam item: Recall the recorded Potency for CCOc1ccc(C2c3[nH]c4ccccc4c3CCN2Cc2cccn2-c2ncccn2)cc1 (stereo not drawn) with Thioredoxin reductase 1, cytoplasmic (Rattus norvegicus) and state it.
Marked response: inactive

Exam item: Recall the recorded Potency for CCOc1cc2[nH]c(=S)n(Cc3ccc(C(=O)N4CCN(C)CC4)cc3)c(=O)c2cc1OCC with Thioredoxin reductase 1, cytoplasmic (Rattus norvegicus) and state it.
Marked response: inactive

Exam item: Recall the recorded Potency for COc1cc2nc(Cl)nc(NC3CC3)c2cc1OC with Thioredoxin reductase 1, cytoplasmic (Rattus norvegicus) and state it.
Marked response: inactive

Exam item: Recall the recorded Potency for O=C(CCS(=O)(=O)c1cc(Br)cc2c1N(C(=O)C1CC1)CC2)Nc1ccc(C(F)(F)F)cc1 with Thioredoxin reductase 1, cytoplasmic (Rattus norvegicus) and state it.
Marked response: inactive

Continuing:
Exam item: Recall the recorded Potency for COc1ccccc1C(=O)OCC(=O)NCCNC(=O)COC(=O)c1ccccc1OC with Thioredoxin reductase 1, cytoplasmic (Rattus norvegicus) and state it.
Marked response: inactive

Exam item: Recall the recorded Potency for O=c1cc(-c2ccccc2)n2c(SCc3ccccc3)nnc2[nH]1 with Thioredoxin reductase 1, cytoplasmic (Rattus norvegicus) and state it.
Marked response: inactive

Exam item: Recall the recorded Potency for Cc1cc(NC(=O)CCS(=O)(=O)c2ccc(F)cc2)no1 with Thioredoxin reductase 1, cytoplasmic (Rattus norvegicus) and state it.
Marked response: 44.7 µM (active)

====

# experimental.system: Thioredoxin reductase 1, cytoplasmic (Rattus norvegicus) (UniProt O89049)
# protocol.details: qHTS Assay for Inhibitors of Mammalian Selenoprotein Thioredoxin Reductase 1 (TrxR1): qHTS; also: nearly all actives have a fitted effect of over 65% in size
# details: recombinant rTrxR1, NADPH fluorescence consumption, selenite substrate; series mostly up to 114 µM
Hit rate of the full screen: of about 390,000 compounds, about 4,000 (1%) were called active. Roughly 4% stayed inconclusive and do not appear here. Calls follow the shape of the dose curve; as a rule, active = well fitted inhibition curve with a large enough effect; inconclusive = small, poorly fitted or top-dose-only effect; inactive = no such curve, though single readings can be large or run the other way. This is one part of a sample in which actives are shown more often than they occur.
Your response should consist of one outcome taken from 1 for active, 0 for inactive

As a guide, the following entries are already answered.
Exam item: GET /call?item= Cc1ccccc1OCC(=O)Nc1c(C(=O)Nc2ccccc2F)oc2ccccc12 returns the recorded outcome of this test.
Marked response: 0

Exam item: GET /call?item= CC1CCC2(CC1)N=C(c1ccccc1)C(=O)N2CC(=O)Nc1ccc(F)c(Cl)c1 (stereo not given) returns the recorded outcome of this test.
Marked response: 0

Exam item: GET /call?item= Cn1cc(S(=O)(=O)N2CCCCCC2)cc1C(=O)N1CCN(c2ccc(F)cc2)CC1 returns the recorded outcome of this test.
Marked response: 0

Continuing:
Exam item: GET /call?item= CCOc1cccc2c1N[C@@H](c1ccc(C(=O)O)cc1)[C@H]1CC=C[C@@H]21 returns the recorded outcome of this test.
Marked response: 1

Exam item: GET /call?item= CN(C)c1cccc2ccccc12 returns the recorded outcome of this test.
Marked response: 0

Exam item: GET /call?item= Cc1ccc(C)c(OCC(=O)Nc2sc3c(c2C#N)CCCC3)c1C returns the recorded outcome of this test.
Marked response: 0

====

# experimental.system: Thioredoxin reductase 1, cytoplasmic (Rattus norvegicus)
# protocol.details: qHTS Assay for Inhibitors of Mammalian Selenoprotein Thioredoxin Reductase 1 (TrxR1): qHTS; also: nearly all actives have a fitted effect of over 65% in size
# details: recombinant rTrxR1, NADPH fluorescence consumption, selenite substrate; series mostly up to 114 µM
Screen size: about 390,000 compounds; about 4,000 (1%) were called active. Inconclusive results (about 4%) are left out. Calls follow the shape of the dose curve; as a rule, active = well fitted inhibition curve with a large enough effect; inconclusive = small, poorly fitted or top-dose-only effect; inactive = no such curve, though single readings can be large or run the other way. The sample as a whole holds a higher share of actives than the screen did.
Your response should consist of one outcome taken from active, inactive

As a guide, the following entries are already answered.
Exam item: GET /call?item= COc1ccc(-c2oc3ncnc(NCCCO)c3c2-c2ccc(OC)cc2)cc1 returns the recorded outcome of this test.
Marked response: inactive

Exam item: GET /call?item= O=C(/C=C/c1ccco1)Nc1cccc(-c2nc3ccccc3[nH]2)c1 returns the recorded outcome of this test.
Marked response: active

Exam item: GET /call?item= O=[N+]([O-])c1ccc(/C=C/c2ccc3cccnc3c2)cc1 returns the recorded outcome of this test.
Marked response: inactive

Exam item: GET /call?item= C=CCN1C(=O)C(O)(CC(=O)c2ccc(Cl)cc2)c2ccccc21 (stereo not given) returns the recorded outcome of this test.
Marked response: active

Exam item: GET /call?item= C=CCN1C(=O)C(O)(CC(=O)c2ccccn2)c2ccccc21 (stereo not given) returns the recorded outcome of this test.
Marked response: inactive

Exam item: GET /call?item= OCC(O)C(O)C(O)C(O)C=Nc1ccc(/C=C/c2ccnc3ccccc23)cc1 (stereo not given) returns the recorded outcome of this test.
Marked response: inactive

Exam item: GET /call?item= CCOC(=O)C1CCN(c2csc3ccc(C)cc3c2=O)CC1 returns the recorded outcome of this test.
Marked response: inactive

Exam item: GET /call?item= CCCN1CCC(=O)N(C(CSc2ccc(C)cc2)Cc2ccccc2)CC1 (stereo not given) returns the recorded outcome of this test.
Marked response: inactive

Exam item: GET /call?item= CSc1n[nH]c(-c2ccco2)n1 returns the recorded outcome of this test.
Marked response: inactive

Exam item: GET /call?item= CN(C)c1ccc(/C=c2\[nH]c(=O)/c(=C/c3ccc(N(C)C)cc3)[nH]c2=O)cc1 returns the recorded outcome of this test.
Marked response: inactive

Continuing:
Exam item: GET /call?item= Cc1ccsc1CN(C(=O)c1oc2ccc(Br)cc2c1C)C1CCS(=O)(=O)C1 (stereo not given) returns the recorded outcome of this test.
Marked response: inactive

Exam item: GET /call?item= Cc1cc2nn(-c3ccc(Cl)cc3)nc2cc1NC(=O)C(C)C returns the recorded outcome of this test.
Marked response: inactive

Exam item: GET /call?item= CC1(C)C(=O)Nc2ccccc2N1C(=O)COC(=O)Cn1cnc2ccccc2c1=O returns the recorded outcome of this test.
Marked response: inactive

Exam item: GET /call?item= Clc1ccccc1CSc1nnc(-c2ccco2)c(-c2ccco2)n1 returns the recorded outcome of this test.
Marked response: active

Exam item: GET /call?item= CN(C)c1cccc(C(=O)Nc2nc3ccc(S(=O)(=O)NC(C)(C)C)cc3s2)c1 returns the recorded outcome of this test.
Marked response: inactive

Exam item: GET /call?item= COc1cccc(NC(=O)COC(=O)/C=C/c2ccco2)c1 returns the recorded outcome of this test.
Marked response: active

Exam item: GET /call?item= COc1cccc(C(=O)NC2=NC(c3ccc(N(C)C)cc3)CC(=O)N2)c1 (stereo not given) returns the recorded outcome of this test.
Marked response: inactive

Exam item: GET /call?item= COc1ccc(C(CCN2CCOCC2)c2c(OC)cc(OC)c3c2OC(=O)CC3c2ccc(OC)cc2)cc1 (stereo not given) returns the recorded outcome of this test.
Marked response: inactive

Exam item: GET /call?item= Nc1ncnc2c1c(I)cn2[C@@H]1C[C@H](N)[C@@H](O)[C@H]1O returns the recorded outcome of this test.
Marked response: inactive

Exam item: GET /call?item= CCCS(=O)(=O)C(=C1Nc2ccccc2N1)S(=O)(=O)CCC returns the recorded outcome of this test.
Marked response: inactive

Exam item: GET /call?item= COc1ccc(C(F)(F)F)cc1NC(=O)c1sc2nc(-c3cccs3)ccc2c1N returns the recorded outcome of this test.
Marked response: inactive

Exam item: GET /call?item= O=C(Nc1ccc([N+](=O)[O-])cc1)c1cnn2c1NC(=C1CC1)C=C2C(F)F returns the recorded outcome of this test.
Marked response: inactive

Exam item: GET /call?item= CCCCC(O)(CCCC)C(=O)NN(C(=O)CCl)c1ccccc1 returns the recorded outcome of this test.
Marked response: active

Exam item: GET /call?item= CCOc1ccccc1CNC(=O)c1cnc2c(-c3ccc(OCC)c(OCC)c3)c(C)nn2c1C returns the recorded outcome of this test.
Marked response: inactive

Exam item: GET /call?item= CCCCNC(=O)CN1C(=O)NC(Cc2ccccc2)(Cc2ccccc2)C1=O returns the recorded outcome of this test.
Marked response: inactive
